Value source: the supplement of paper PMC10126150

# Tested on: ATP;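 note: ATP exposure 15 min at 22 °C before imaging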
# experiment: switch fluorescence ratio, 500 uM ATP over buffer (Cy3 cluster intensity, sum of 5 cycles each) (fold (ratio)); higher = stronger signal-on switching upon ATP binding; sequences stand for … in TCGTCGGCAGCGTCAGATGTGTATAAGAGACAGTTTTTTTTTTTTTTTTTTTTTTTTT…TC
# condition.description: aptamer strand: ATP DNA aptamer (quencher-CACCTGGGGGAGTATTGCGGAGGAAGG + anchor), 100 nM annealed; ATP concentration: 500 uM
recorded.endpoint: switch fluorescence ratio
The answer should be written as a number, with no unit following it.

These recorded examples may help you get a feel for the data.
Given item GAAGATGAAA , the value recorded as its switch fluorescence ratio is 0.984

Given item GATAGAGTAG , the value recorded as its switch fluorescence ratio is 1.02

Given item ATTTAGTTTA , the value recorded as its switch fluorescence ratio is 0.996

Given item GCGGCCTTAC , the value recorded as its switch fluorescence ratio is 2.42

Given item TTCCTCGTTA , the value recorded as its switch fluorescence ratio is 1.39

Continuing:
Given item ATGCAATGTC , the value recorded as its switch fluorescence ratio is 1.38

Given item GGAGTCACTG , the value recorded as its switch fluorescence ratio is 1.02

----------
Reported switch fluorescence ratio values follow for various sequences
# Test system: ATP;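 note: ATP exposure 15 min at 22 °C before imaging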
# experiment: switch fluorescence ratio, 500 uM ATP over buffer (Cy3 cluster intensity, sum of 5 cycles each) (fold (ratio)); higher = stronger signal-on switching upon ATP binding; sequences stand for … in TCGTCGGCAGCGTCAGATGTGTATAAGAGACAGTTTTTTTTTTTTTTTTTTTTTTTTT…TC
# condition.description: aptamer strand: ATP DNA aptamer (quencher-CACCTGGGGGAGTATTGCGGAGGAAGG + anchor), 100 nM annealed; ATP concentration: 500 uM
The answer should be written as a number, with no unit following it.

These recorded examples may help you get a feel for the data.
Given item TTCTCAGGGG , the value recorded as its switch fluorescence ratio is 1.12

Given item TGTAAAGGGG , the value recorded as its switch fluorescence ratio is 1.01

Given item TTTGGGGTAA , the value recorded as its switch fluorescence ratio is 0.991

Given item AAATAACGGT , the value recorded as its switch fluorescence ratio is 1.16

Given item AGCTGAGTAA , the value recorded as its switch fluorescence ratio is 1.04

Continuing:
Given item ACCTATCTTG , the value recorded as its switch fluorescence ratio is 1.03

Given item GATTTTGGGT , the value recorded as its switch fluorescence ratio is 1.02

Given item AAAATTGCGT , the value recorded as its switch fluorescence ratio is 1.16

Given item AAGGGAAAGA , the value recorded as its switch fluorescence ratio is 1.02

Given item TTGCAAATTT , the value recorded as its switch fluorescence ratio is 1.79

Given item CTGTGCGTGG , the value recorded as its switch fluorescence ratio is 0.973

Given item TTAGGCGGTT , the value recorded as its switch fluorescence ratio is 1

Given item GGAATTATGT , the value recorded as its switch fluorescence ratio is 1.02

Given item GATAAAGTGG , the value recorded as its switch fluorescence ratio is 0.995

Given item TACTTAGGAT , the value recorded as its switch fluorescence ratio is 1.02

Given item AAAGAGAGTA , the value recorded as its switch fluorescence ratio is 1.01

Given item TAGGAGGGGA , the value recorded as its switch fluorescence ratio is 1.01

Given item TTCATGGGG , the value recorded as its switch fluorescence ratio is 0.988

Given item GACTATTAGC , the value recorded as its switch fluorescence ratio is 0.984

Given item GATTTTCCTA , the value recorded as its switch fluorescence ratio is 0.961

Given item GGTAGGTAGG , the value recorded as its switch fluorescence ratio is 1.01

----------
Reported switch fluorescence ratio values follow for various sequences
# Tested on: ATP;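 note: ATP exposure 15 min at 22 °C before imaging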
# experiment: switch fluorescence ratio, 500 uM ATP over buffer (Cy3 cluster intensity, sum of 5 cycles each) (fold (ratio)); higher = stronger signal-on switching upon ATP binding; sequences stand for … in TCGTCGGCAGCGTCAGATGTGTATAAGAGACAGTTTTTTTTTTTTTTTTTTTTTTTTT…TC
# condition.description: aptamer strand: ATP DNA aptamer (quencher-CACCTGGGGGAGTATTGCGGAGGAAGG + anchor), 100 nM annealed; ATP concentration: 500 uM

Given item TCAGTTATTT , the value recorded as its switch fluorescence ratio is 1.04

Given item GTAAAAGAAG , the value recorded as its switch fluorescence ratio is 0.964

Given item CAGCTTTGAG , the value recorded as its switch fluorescence ratio is 1.01

Given item TGCGCAAAAG , the value recorded as its switch fluorescence ratio is 1.01

Given item TTTTTGTTGT , the value recorded as its switch fluorescence ratio is 1.01

Continuing:
Given item GGTACGTTTG , the value recorded as its switch fluorescence ratio is 0.993

Given item GTCAGTGGGT , the value recorded as its switch fluorescence ratio is 0.968

----------
# Test system: ATP;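 note: ATP exposure 15 min at 22 °C before imaging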
# experiment: switch fluorescence ratio, 500 uM ATP over buffer (Cy3 cluster intensity, sum of 5 cycles each) (fold (ratio)); higher = stronger signal-on switching upon ATP binding; sequences stand for … in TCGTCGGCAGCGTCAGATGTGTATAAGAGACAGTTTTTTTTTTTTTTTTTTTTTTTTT…TC
# condition.description: aptamer strand: ATP DNA aptamer (quencher-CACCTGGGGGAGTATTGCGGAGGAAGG + anchor), 100 nM annealed; ATP concentration: 500 uM
Reported switch fluorescence ratio values follow for various sequences
The answer should be written as a number, with no unit following it.

These recorded examples may help you get a feel for the data.
Given item AGTCGTACGG , the value recorded as its switch fluorescence ratio is 1

Given item CAACCGGTTG , the value recorded as its switch fluorescence ratio is 0.984

Given item TAAGCGGGGA , the value recorded as its switch fluorescence ratio is 1.03

Given item CTCAATCGAA , the value recorded as its switch fluorescence ratio is 1.03

Given item GTTTTAACGG , the value recorded as its switch fluorescence ratio is 1.02

Here is another sequence to look at.
Given item TCTGATGCGT , the value recorded as its switch fluorescence ratio is 1.03

----------
Reported switch fluorescence ratio values follow for various sequences
# Test system: ATP;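 note: ATP exposure 15 min at 22 °C before imaging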
# experiment: switch fluorescence ratio, 500 uM ATP over buffer (Cy3 cluster intensity, sum of 5 cycles each) (fold (ratio)); higher = stronger signal-on switching upon ATP binding; sequences stand for … in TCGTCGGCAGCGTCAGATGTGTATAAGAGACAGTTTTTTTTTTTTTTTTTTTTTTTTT…TC
# condition.description: aptamer strand: ATP DNA aptamer (quencher-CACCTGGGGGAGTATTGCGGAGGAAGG + anchor), 100 nM annealed; ATP concentration: 500 uM
The answer should be written as a number, with no unit following it.

Given item TGTGTGCTGA , the value recorded as its switch fluorescence ratio is 1.02

Given item TATCTTAGGC , the value recorded as its switch fluorescence ratio is 1.01

Given item TAATGGGACG , the value recorded as its switch fluorescence ratio is 1.08

Given item TGAAAATAGT , the value recorded as its switch fluorescence ratio is 0.965

Given item ATGAGGGGGG , the value recorded as its switch fluorescence ratio is 0.986

Given item GAGGCTAGGG , the value recorded as its switch fluorescence ratio is 1.05

Continuing:
Given item GGACTTGCGA , the value recorded as its switch fluorescence ratio is 1.04

Given item TCGGCGAATG , the value recorded as its switch fluorescence ratio is 1.02

Given item TTAATTGGTT , the value recorded as its switch fluorescence ratio is 0.997

Given item TTATTGGCGG , the value recorded as its switch fluorescence ratio is 1.01

Given item AGCACTTACA , the value recorded as its switch fluorescence ratio is 1.35

Given item TTGTTATGCG , the value recorded as its switch fluorescence ratio is 0.995

----------
# Tested on: ATP;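 note: ATP exposure 15 min at 22 °C before imaging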
# experiment: switch fluorescence ratio, 500 uM ATP over buffer (Cy3 cluster intensity, sum of 5 cycles each) (fold (ratio)); higher = stronger signal-on switching upon ATP binding; sequences stand for … in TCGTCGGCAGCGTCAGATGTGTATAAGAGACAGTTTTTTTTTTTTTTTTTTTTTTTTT…TC
# condition.description: aptamer strand: ATP DNA aptamer (quencher-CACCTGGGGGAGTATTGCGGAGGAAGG + anchor), 100 nM annealed; ATP concentration: 500 uM
Reported switch fluorescence ratio values follow for various sequences
The answer should be written as a number, with no unit following it.

Given item ACGATCTTGC , the value recorded as its switch fluorescence ratio is 1.02

Given item TGGAATTCGG , the value recorded as its switch fluorescence ratio is 1.02

Given item CCAGAGGTAA , the value recorded as its switch fluorescence ratio is 1.04

Given item TTATAGAGGT , the value recorded as its switch fluorescence ratio is 1.01

Given item GCTTGTACGT , the value recorded as its switch fluorescence ratio is 1.02

Given item GGGGGAAGGG , the value recorded as its switch fluorescence ratio is 0.984

Given item TTCCGCACGT , the value recorded as its switch fluorescence ratio is 2.64

Given item TTTATGAAGG , the value recorded as its switch fluorescence ratio is 1

Given item AATACGAGAG , the value recorded as its switch fluorescence ratio is 1.03

Given item GGGAAAATTT , the value recorded as its switch fluorescence ratio is 1.07
